# tested_system: KRAS(G12D) (Homo sapiens, UniProt P01116, G12D)
# Construct: endogenous in cells; host or cells: SW1990
# Sequence (P01116 1-188 isoform P01116-2 G12D): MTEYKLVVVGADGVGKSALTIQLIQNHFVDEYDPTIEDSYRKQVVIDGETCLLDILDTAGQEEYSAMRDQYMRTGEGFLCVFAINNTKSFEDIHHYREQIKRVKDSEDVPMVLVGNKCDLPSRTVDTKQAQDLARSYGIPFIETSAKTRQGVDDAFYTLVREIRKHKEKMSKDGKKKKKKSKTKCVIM
# experimental_details: SW1990 WB assay (degradation DC50, Dmax)
# Type: cell-based
# condition_description: Western blot, SW1990 cells
test_readout: DC50

// worked examples, DC50 included
C#Cc1cccc2cc(O)cc(-c3ncc4c(N5CC6CCC(C5)N6)nc(OCC5(CN6CCN(CC7CCN(c8ccc9c(c8)CN(C)C9=O)CC7)CC6)CC5)nc4c3F)c12 | > 1 µM
C#Cc1cccc2cc(O)cc(-c3ncc4c(N5CC6CCC(C5)N6)nc(OCC5(CN6CCN(CC7CCN(c8ccc9c(c8)CN(C8CCC(=O)NC8=O)C9=O)CC7)CC6)CC5)nc4c3F)c12 (stereo not shown) | < 0.1 µM
C#Cc1cccc2cc(O)cc(-c3ncc4c(N5CC6CCC(C5)N6)nc(OCC5(CN6CCN(CC7CCN(c8ccc9c(c8)C(=O)N(C8CCC(=O)NC8=O)C9)CC7)CC6)CC5)nc4c3F)c12 (stereo not shown) | < 0.1 µM

## Input Give the observed DC50 of C#Cc1c(F)ccc2cc(O)cc(-c3ncc4c(N5CC6CCC(C5)N6)nc(OCC5(CN6CCN(CC7CN(c8ccc9c(c8)CN(C8CCC(=O)NC8=O)C9=O)C7)CC6)CC5)nc4c3F)c12 (stereo not shown) for KRAS(G12D) (Homo sapiens, UniProt P01116, G12D).
## Output > 1 µM

## Input Give the observed DC50 of C#Cc1c(F)ccc2cc(O)cc(-c3nc(OC)c4c(N5CC6CCC(C5)N6)nc(OCC5(CN6CCN(CC7CCN(c8ccc9c(c8)CN(C8CCC(=O)NC8=O)C9=O)CC7)CC6)CC5)nc4c3F)c12 (stereo not shown) for KRAS(G12D) (Homo sapiens, UniProt P01116, G12D).
## Output > 1 µM

## Input Give the observed DC50 of C#Cc1cccc2cc(O)cc(-c3nc(OC)c4c(N5CC6CCC(C5)N6)nc(OCC5(CN6CCN(CC7CCN(c8ccc9c(c8)CN(C8CCC(=O)NC8=O)C9=O)CC7)CC6)CC5)nc4c3F)c12 (stereo not shown) for KRAS(G12D) (Homo sapiens, UniProt P01116, G12D).
## Output < 0.1 µM

## Input Give the observed DC50 of C#Cc1c(F)ccc2cc(O)cc(-c3ncc4c(N5CC6CCC(C5)N6C(=O)CC)nc(OCC5(CN6CCN(CC7CCN(c8ccc9c(c8)CN(C8CCC(=O)NC8=O)C9=O)CC7)CC6)CC5)nc4c3F)c12 (stereo not shown) for KRAS(G12D) (Homo sapiens, UniProt P01116, G12D).
## Output > 1 µM

---

# System: A-427 human lung carcinoma
# experimental_details: CellTiter-Glo cancer cell line proliferation assay, A-427
# Assay type: cell-based
# condition_description: Homo sapiens, A-427, 24 hr, read-out: A427 at 24 hrs, IC50
pIC50: −log10 of the molar value. Counter-ions that a name gives are not always drawn.
Documented pIC50 across a set of compounds

// worked examples, pIC50 included
C#Cc1cccc2cc(O)cc(-c3ncc4c(N5CC6CCC(C5)N6)nc(OCC5(CN6CCN(CC7CCN(c8ccc9c(c8)CN(C8CCC(=O)NC8=O)C9=O)CC7)CC6)CC5)nc4c3F)c12 (stereo not shown) [Compound 57] | > 7.00
Cc1cccc(-c2ncc3c(N4CC5CCC(C4)N5)nc(OCC4(CN5CCN(CC6CCN(c7ccc8c(c7)C(=O)N(C7CCC(=O)NC7=O)C8=O)CC6)CC5)CC4)nc3c2F)c1C (stereo not shown) [Compound 63] | < 6.00
C#Cc1cccc2cc(O)cc(-c3ncc4c(N5CC6CCC(C5)N6)nc(OCC5(CN6CCN(CC7CCN(c8ccc9c(c8)CN(C8CCC(=O)N(C)C8=O)C9=O)CC7)CC6)CC5)nc4c3F)c12 (stereo not shown) [Compound 71] | 6.00 to 7.00

## Input Please report pIC50 for the following compound: CN1C[C@H](N2CCN(C(=O)C3CCN(c4ccc5c(c4)CN(C4CCC(=O)NC4=O)C5=O)CC3)CC2)C[C@@H]1COc1nc(N2CC3CCC(C2)N3)c2cnc(-c3cc(O)cc4ccccc34)c(F)c2n1 (stereo partly shown) [Compound 44]
## Output < 6.00

## Input Please report pIC50 for the following compound: C#Cc1c(F)ccc2cc(O)cc(-c3ncc4c(N5CCN(C(=O)CC)[C@@H](CC#N)C5)nc(OCC5(CN6CCN(CC7CCN(c8ccc9c(c8)CN(C8CCC(=O)NC8=O)C9=O)CC7)CC6)CC5)nc4c3F)c12 (stereo partly shown) [Compound 97]
## Output < 6.00

## Input Please report pIC50 for the following compound: C#Cc1cccc2cc(O)cc(-c3ncc4c(N5CC6CCC(C5)N6)nc(OCC5(CN6CCN(Cc7ccc8c(c7)CN(C7CCC(=O)NC7=O)C8=O)CC6)CC5)nc4c3F)c12 (stereo not shown) [Compound 61]
## Output 6.00 to 7.00

## Input Please report pIC50 for the following compound: C#Cc1cccc2cccc(-c3ncc4c(N5CC6CCC(C5)N6)nc(OC[C@@H]5CC[C@H](CN6CCN(CC7CCN(c8ccc9c(c8)C(=O)N(C8CCC(=O)NC8=O)C9=O)CC7)CC6)N5C)nc4c3F)c12 (stereo partly shown) [Compound 13, hydrochloride]
## Output < 6.00

## Input Please report pIC50 for the following compound: C#Cc1cccc2cc(O)cc(-c3ncc4c(N5CC6CCC(C5)N6)nc(OCC5(CN6CCN(CC7CCN(c8cc9c(cc8F)C(=O)N(C8CCC(=O)NC8=O)C9)CC7)CC6)CC5)nc4c3F)c12 (stereo not shown) [Compound 90]
## Output > 7.00
